- Tested on: HCC 2998
- measurement-description: NCI tumour cell line growth inhibition, 48 h
The source made the active and inactive calls. No stated cut-off is given here; in the data, active = GI50 up to about 1.1 µM and inactive = higher.
Hi! Could you answer with just one of these? active, inactive

Examples from the recorded data:
INSERT INTO measurements (compound, discrete_label) VALUES
  ('O=C1C2=Cc3ccccc3CCN2c2ccc([N+](=O)[O-])cc21', 'inactive'),
  ('CC1CN1P1(N2CC2C)=NP(N2CC2C)(N2CC2C)=NP(N2CC2C)(N2CC2C)=N1 (stereo unspecified)', 'inactive'),
  ('CC1=C(N(C)C)C(=O)c2nc3n(c2C1=O)CCC3OC(N)=O (stereo unspecified)', 'inactive'),
  ('CC(C)C(/C=C/c1ccc(Cl)cc1)=N\NC(=O)N/N=C(/C=C/c1ccc(Cl)cc1)C(C)C', 'inactive'),
  ('NC(CCSC(F)F)C(=O)O (stereo unspecified)', 'inactive'),
  ('O=C1OC(C2Cc3ccc4c(c3C2=O)CCCC4)c2ccccc21 (stereo unspecified)', 'inactive'),
  ('O=C(CC1C(=O)Nc2ccccc2S1(=O)=O)Nc1cccc(Cl)c1 (stereo unspecified)', 'inactive'),
  ('COc1cc(C2c3cc4c(cc3OC(N3CCOCC3)C2C)OCO4)cc(OC)c1O (stereo unspecified)', 'inactive'),
  ('Cc1c(O)c(=O)ccn1CCN', 'inactive'),
  ('CCOC(=O)N1CCN(c2ccc3c(C)cc(C)nc3n2)CC1', 'inactive');

Please share the test call associated with COC(=O)c1ccc2n1C1CC3CC(CC2C3)C1 . inactive

Consider next the compound CCOC(=O)c1sc2c(c1OC(=O)c1ccc(Cl)cc1Cl)c(=O)n(-c1ccccc1)c(=S)n2-c1ccccc1 in the same way. inactive

Next up: CCOP(=O)(OCC)/C(F)=C/c1ccccc1 inactive

Okay, and COc1cc2c(cc1OC)C(=O)C(C1=C(SC(=N)N)C(=O)c3cc(OC)c(OC)cc31)C2 (stereo unspecified) ? inactive

Similarly, CCOC(=O)C1=C(O)C(=O)c2cc(C)ccc2C1=O ? inactive

And the next one, NCCN1C(=O)CN=C(c2ccc(Cl)cc2)c2cc(Cl)ccc21 ? inactive

Can you handle CN(C)c1nc(N(C)C)nc(N(C)CN(C)c2nc(N(C)C)nc(N(C)C)n2)n1 next? inactive

Quick one: CC(C)C(C/C=C1/CC(CO)(COC(=O)C2CCCCC2)OC1=O)C(C)C (stereo unspecified) inactive

Repeat for the following compound: COc1ccc2[nH]cc(CN3CCC(CO)(c4ccccc4)CC3)c2c1 inactive

Try the compound Cc1c(C(=O)CSc2nc3cc([N+](=O)[O-])ccc3[nH]2)c(=O)n(-c2ccccc2)n1C inactive

Try the compound Cc1ccc(C)n2c1nc1ccccc12 inactive

Please answer likewise for O=C(C1OC1c1cccc([N+](=O)[O-])c1)C12CC3CC(CC(C3)C1)C2 (stereo unspecified) inactive

====

- Test system: OVCAR-4
- measurement-description: NCI tumour cell line growth inhibition, 48 h
Activity calls are given as the source filed them. Rule as the data show it: active = GI50 up to about 1.1 µM and inactive = higher.
Your reply should match one of these outcome classes. active, inactive

Worked examples, 3 molecules total:
INSERT INTO measurements (molecule, discrete_label) VALUES
  ('CC(=O)NC1C(OCc2ccccc2)OC(CO)C(O)C1OCC(=O)NC(C)C(=O)NC(CCC(=O)NCCCCCC(=O)Nc1ccc2c(c1)CN1C(=O)c3ccccc3C1=N2)C(N)=O (centres undefined)', 'inactive'),
  ('CN(C)CCn1c(=O)c2ccc3c4c(nn3CCN(C)C)c3ccccc3n(c1=O)c24', 'active'),
  ('O=[N+]([O-])c1cccc2nc3ccccc3c(NCCc3cccc[n+]3[O-])c12', 'active');

Next:
Could you please tell me the result logged for COc1ccc(/C=C/c2cc(OC)cc(=O)o2)cc1 in this assay? inactive
